System: ATP;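 note: ATP exposure 15 min at 22 °C before imaging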
Experiment: switch fluorescence ratio, 500 uM ATP over buffer (Cy3 cluster intensity, sum of 5 cycles each) (fold (ratio)); higher = stronger signal-on switching upon ATP binding; sequences stand for … in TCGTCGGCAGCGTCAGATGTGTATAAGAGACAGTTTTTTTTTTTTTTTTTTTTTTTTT…TC
Settings: aptamer strand: ATP DNA aptamer (quencher-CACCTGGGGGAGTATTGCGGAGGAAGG + anchor), 100 nM annealed; ATP concentration: 500 uM
Property: switch fluorescence ratio; scope: individual sequences
Lab note: jot the number down without any unit.

Some entries whose results are on file:
GACTTATCTA
1.02
TTTATCGGGG
0.988
GTTTGTGGGG
0.991

Return switch fluorescence ratio for the following sequence: "GGGGGTATGG" 0.983

Provide one value: measured switch fluorescence ratio of "ACCATTAGCA" 0.998

* * *

Recorded switch fluorescence ratio, one value per entry.
Test system: ATP;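 note: ATP exposure 15 min at 22 °C before imaging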
Test: switch fluorescence ratio, 500 uM ATP over buffer (Cy3 cluster intensity, sum of 5 cycles each) (fold (ratio)); higher = stronger signal-on switching upon ATP binding; sequences stand for … in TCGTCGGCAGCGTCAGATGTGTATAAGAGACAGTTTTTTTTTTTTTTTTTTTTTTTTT…TC
Conditions: aptamer strand: ATP DNA aptamer (quencher-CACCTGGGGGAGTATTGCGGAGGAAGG + anchor), 100 nM annealed; ATP concentration: 500 uM
Field format: numeric only.

# example entries with known answers
GCTAATGGGA
0.994
CGGGCGCGTT
0.984
CTGTTCTTTG
0.982
TGTTGCATAG
1.01
GGTTGGTGCA
1.02
CCTGTTTATT
0.974

The record that follows has no switch fluorescence ratio shown yet.
// Input: "CGGTCGGGAA" . Output its switch fluorescence ratio only. 1.01

* * *

System: ATP;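 note: ATP exposure 15 min at 22 °C before imaging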
Experiment: switch fluorescence ratio, 500 uM ATP over buffer (Cy3 cluster intensity, sum of 5 cycles each) (fold (ratio)); higher = stronger signal-on switching upon ATP binding; sequences stand for … in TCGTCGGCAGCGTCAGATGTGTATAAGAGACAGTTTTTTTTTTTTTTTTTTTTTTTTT…TC
Conditions: aptamer strand: ATP DNA aptamer (quencher-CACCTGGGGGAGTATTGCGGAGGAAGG + anchor), 100 nM annealed; ATP concentration: 500 uM
The following sequences are listed with their measured switch fluorescence ratio values.
# answer = number (no unit)

CGCGATCGCG
0.994

Output switch fluorescence ratio of "TTTTAGAGCC" 1.04

Provide measured switch fluorescence ratio value, entry: "TGGTCGTGTG" 1

State, in one line, measured switch fluorescence ratio of "TGTTATAGTT" 1.01

Find the measured switch fluorescence ratio of "TAAAGGTTGA" and report it. 1.01

* * *

Reported switch fluorescence ratio by item:
Tested on: ATP;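 note: ATP exposure 15 min at 22 °C before imaging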
Test: switch fluorescence ratio, 500 uM ATP over buffer (Cy3 cluster intensity, sum of 5 cycles each) (fold (ratio)); higher = stronger signal-on switching upon ATP binding; sequences stand for … in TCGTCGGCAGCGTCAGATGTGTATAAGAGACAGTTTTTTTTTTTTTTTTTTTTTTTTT…TC
Conditions: aptamer strand: ATP DNA aptamer (quencher-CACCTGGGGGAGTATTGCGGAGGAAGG + anchor), 100 nM annealed; ATP concentration: 500 uM
Give a plain numeric answer without units written out.

Would you please look over these solved cases?
GGATACATGT
1
GTGTGCCGTG
1.01
GTTCGTATTT
0.997
GGGTAAGATG
0.992
ATGTTAACG
0.999
GATGTTTGGA
1.01
CACTAGAGGA
1.02
CCCGGGGCTG
1.02

Input "ATCGACATTA" , output reported switch fluorescence ratio. 1.01

Supply switch fluorescence ratio value. Item: "AATAATATTT" 1.01

Retrieve switch fluorescence ratio measured for "TCGGTCCGAT" and print it. 1
